Hello, the source for this data is PubChem BioAssay (NCI), in case you need it.

Answer each item with its documented TGI.
- System: SF-295 CNS
- measurement.description: NCI tumour cell line growth inhibition, 48 h

Inquiry: # TGI lookup, item COC(=O)C1(C(=O)OC)CC(=O)c2c(OC(=O)c3cccc(OC)c3C#N)ccc(OC(=O)c3cccc(OC)c3C#N)c2C1
Reply text: > 100 µM

Inquiry: # TGI lookup, item COc1ccc2c(C)cc(C)nc2n1
Reply text: > 100 µM

Inquiry: # TGI lookup, item Cc1cc2c(c3c1c1ccccc1n3C)C(=O)c1ccccc1C2=O
Reply text: > 100 µM

Inquiry: # TGI lookup, item CCOC(=O)Cn1c(=O)[nH]c(=O)c2c1ncn2Cc1ccccc1
Reply text: > 100 µM

Inquiry: # TGI lookup, item Cn1cc(C2=C(Oc3ccccc3)C(=O)NC2=O)c2ccccc21
Reply text: > 25 µM

Inquiry: # TGI lookup, item CCOCc1cc(=O)c2cc3c(cc2o1)OC(C)(C)CC3
Reply text: > 100 µM

###

- System: K-562 leukemia
- measurement.description: NCI tumour cell line growth inhibition, 48 h
Label true (1) when TGI is at or above 8 µM; anything below gets false (0).

Inquiry: Tell me whether TGI is at least 8 µM here: COc1ccc(N2C(Cl)C(=O)C2c2c[nH]c3ccccc23)cc1 (configuration not stated)
Reply text: true (1)

Inquiry: Tell me whether TGI is at least 8 µM here: Clc1ccc2c(NCCNC3CCCCC3)ccnc2c1
Reply text: false (0)

Inquiry: Tell me whether TGI is at least 8 µM here: C=CCNCCN1C(=O)c2ccc3c4c(ccc(c24)C1=O)C(=O)N(CCNCC=C)C3=O
Reply text: false (0)

Inquiry: Tell me whether TGI is at least 8 µM here: CCOCc1cc(=O)c2cc3c(cc2o1)OC(C)(C)CC3
Reply text: true (1)

Inquiry: Tell me whether TGI is at least 8 µM here: O=C(O)COc1ccc(C(=O)/C(SS/C(C(=O)c2ccc(OCC(=O)O)c(Cl)c2Cl)=C2\C=C(c3ccc(F)cc3)SS2)=C2/C=C(c3ccc(F)cc3)SS2)c(Cl)c1Cl
Reply text: true (1)

Inquiry: Tell me whether TGI is at least 8 µM here: Cc1cc(S(=O)(=O)NC2=NCC(C)NN2)c(S)cc1Cl (configuration not stated)
Reply text: true (1)

Inquiry: Tell me whether TGI is at least 8 µM here: O=C1C(Br)=CC2C1C1C3CCC3C2(Br)C12OCCO2 (configuration not stated)
Reply text: true (1)

Inquiry: Tell me whether TGI is at least 8 µM here: Cn1cc(-c2nonc2-c2cn(C)c3ccc(F)cc23)c2ccccc21
Reply text: true (1)

Inquiry: Tell me whether TGI is at least 8 µM here: CC(C)(C)C(=O)C(C(=O)c1ccccc1)C(=O)C(C)(C)C
Reply text: true (1)

Inquiry: Tell me whether TGI is at least 8 µM here: C1OC1C1CO1 (configuration not stated)
Reply text: true (1)

###

- Test system: SW-620 colon
- measurement.description: NCI tumour cell line growth inhibition, 48 h
readout.label: TGI

Inquiry: # TGI lookup, item O=C(O)CCN1CCN(CCC(=O)O)CCN(CCC(=O)O)CC1
Reply text: > 100 µM

Inquiry: # TGI lookup, item N#Cc1c(N2CCCC2)ncn(-c2ccccc2)c1=S
Reply text: > 100 µM

Inquiry: # TGI lookup, item COC(=O)CN1Cc2cc(C)cc(c2O)CN(CC(=O)OC)Cc2cc(C)cc(c2O)CN(CC(=O)OC)Cc2cc(C)cc(c2O)C1
Reply text: > 100 µM

###

Answer each item with its documented log10 TGI.
- System: T-47D breast
- measurement.description: NCI tumour cell line growth inhibition, 48 h
Hey, these are logged values: log10 of TGI, µM being the unit before logging.

Inquiry: # log10 TGI lookup, item CCC(=O)c1c(C(F)(F)F)n([O-])c2cc(N3CCNCC3)c(F)cc2[n+]1=O
Reply text: 1.28

Inquiry: # log10 TGI lookup, item Cc1ncc(C(=O)Nc2ccc(CN3CCN(C)CC3)c(C(F)(F)F)c2)cc1C#Cc1c(N)ncc2ccc(F)cc12
Reply text: 1.21

Inquiry: # log10 TGI lookup, item Nc1cccc(C2CCCc3c2[nH]c2ccccc32)c1 (stereo not drawn)
Reply text: 1.74

Inquiry: # log10 TGI lookup, item O=C(O)COc1ccc(C(=O)/C(SS/C(C(=O)c2ccc(OCC(=O)O)c(Cl)c2Cl)=C2\C=C(c3ccc(F)cc3)SS2)=C2/C=C(c3ccc(F)cc3)SS2)c(Cl)c1Cl
Reply text: 1.50

Inquiry: # log10 TGI lookup, item Nc1cccc(CCN2CCN(CCCc3ccccc3)CC2)c1
Reply text: 1.72

Inquiry: # log10 TGI lookup, item C=C1c2nc3ccccc3n2C=C(c2ccc(OC)cc2)N1c1ccccc1
Reply text: 1.99

Inquiry: # log10 TGI lookup, item CC(C)c1cc2c(c(O)c1O)[C@@]1(C)CCCC(C)(C)C1=C(O)C2
Reply text: 1.30

Inquiry: # log10 TGI lookup, item COc1cc(-c2cc(/C=C3\C(=O)Nc4cc(Cl)ccc43)[nH]n2)cc(OC)c1OC
Reply text: 0.83

Inquiry: # log10 TGI lookup, item N=C1N(/N=C/c2ccccn2)C(=Nc2ccccc2)C(=S)N1c1ccccc1
Reply text: 1.32

Inquiry: # log10 TGI lookup, item COc1cc(/C=C2\C[C@H]3[C@@H]4CC=C5C[C@@H](OC(C)=O)CC[C@]5(C)[C@H]4CC[C@]3(C)\C2=N\O)cc(OC)c1OC
Reply text: 0.72

###

- System: SN12C renal
- measurement.description: NCI tumour cell line growth inhibition, 48 h; in the data active means GI50 below about 0.43 µM; inactive means the rest
Outcome field: choose from active, inactive

Inquiry: Please indicate how the test categorized Cc1ncc(C(=O)Nc2ccc(CN3CCN(C)CC3)c(C(F)(F)F)c2)cc1C#Cc1c(N)ncc2ccc(F)cc12 .
Reply text: active

Inquiry: Please indicate how the test categorized Oc1c(I)cc(I)cc1CNCCN(Cc1ccccn1)Cc1ccccn1 .
Reply text: inactive

Inquiry: Please indicate how the test categorized CC(C)(O)/C=C/C(=O)[C@](C)(O)[C@H]1[C@H](O)C[C@@]2(C)[C@@H]3CC=C4[C@@H](C=C(O)C(=O)C4(C)C)[C@]3(C)C(=O)C[C@]12C .
Reply text: inactive

Inquiry: Please indicate how the test categorized C=CCNCCN1C(=O)c2ccc3c4c(ccc(c24)C1=O)C(=O)N(CCNCC=C)C3=O .
Reply text: inactive

Inquiry: Please indicate how the test categorized CCCCCCCCCC(CCCC(O)CC(=O)O)OC1OC(COC2OC(C)C(O)C(O)C2O)C(O)C(O)C1OC1OC(CO)C(O)C(O)C1OC1OC(C)C(OC(=O)CC(C)C)C(O)C1O (stereo not drawn) .
Reply text: inactive

Inquiry: Please indicate how the test categorized O=c1[nH]cnc2c1ccn2C1OC(CO)C(O)C1O (stereo not drawn) .
Reply text: inactive

Inquiry: Please indicate how the test categorized CCN(CC)c1ccc(/C=N/NC(=O)c2ccc(S(C)(=O)=O)cc2)c(O)c1 .
Reply text: active

Inquiry: Please indicate how the test categorized Cn1cc(-c2nonc2-c2cn(C)c3ccc(F)cc23)c2ccccc21 .
Reply text: inactive

Inquiry: Please indicate how the test categorized CN1CCN(c2ccc3[nH]c(C4=C(O)c5nc(CCl)n(C)c5C(=O)C4=O)nc3n2)CC1 .
Reply text: inactive

Inquiry: Please indicate how the test categorized COc1cc(C2CC(c3cccc(Nc4ccnc5cc(Cl)ccc45)c3)=NN2C=O)cc(OC)c1OC (stereo not drawn) .
Reply text: inactive

Inquiry: Please indicate how the test categorized O=C1C=CC=C[C@@H]2C(C3OCCO3)CC[C@H]12.[C-]#[O+].[C-]#[O+].[C-]#[O+].[Fe] (stereo partly drawn) .
Reply text: inactive

Inquiry: Please indicate how the test categorized O=C1C(Br)=CC2C1C1C3CCC3C2(Br)C12OCCO2 (stereo not drawn) .
Reply text: inactive

Inquiry: Please indicate how the test categorized O=c1oc2ccc(Br)cc2c(=O)n1-c1ccc(Br)cc1F .
Reply text: inactive

###

Answer each item with its documented TGI.
- Test system: BT-549 breast
- measurement.description: NCI tumour cell line growth inhibition, 48 h

Inquiry: API: value(readout=TGI, system=BT-549 breast) for record CCc1nnc(CC)n1N1C(=O)CCC1=O
Reply text: > 100 µM

Inquiry: API: value(readout=TGI, system=BT-549 breast) for record COC(=O)c1cc2/c(=N/O)c3ccccc3sc2o1
Reply text: > 100 µM

Inquiry: API: value(readout=TGI, system=BT-549 breast) for record COc1ccc2oc(=N)c(C(N)=O)cc2c1
Reply text: > 100 µM

###

- Tested on: NCI/ADR-RES ovarian
- measurement.description: NCI tumour cell line growth inhibition, 48 h
readout.label: TGI

Inquiry: # TGI lookup, item OC/C=C/[C@H](OCc1ccccc1)[C@H](/C=C/CO)OCc1ccccc1
Reply text: > 100 µM

Inquiry: # TGI lookup, item CC(OC(C)(C)C)[C@H](NC(=O)OCc1ccccc1)C(=O)NC(OCc1ccccc1)[C@H]1COC(C)(C)O1 (some centres not stated)
Reply text: > 10 µM

Inquiry: # TGI lookup, item C=CCNCCN1C(=O)c2ccc3c4c(ccc(c24)C1=O)C(=O)N(CCNCC=C)C3=O
Reply text: 5.29 µM

Inquiry: # TGI lookup, item Cc1nn(-c2ccccc2)c2nc3c(c(C)nn3-c3ccccc3)c(-c3ccc(C(F)(F)F)cc3)c12
Reply text: > 100 µM

Inquiry: # TGI lookup, item O=[N+]([O-])c1ccccc1N=Nc1c(O)[nH]c2ccc(S(=O)(=O)O)cc12
Reply text: > 100 µM

Inquiry: # TGI lookup, item CC(=O)OCC1OC(n2c3c(cc(C#N)c2=O)CCCCCC3)C(OC(C)=O)C(OC(C)=O)C1OC(C)=O (configuration not stated)
Reply text: > 100 µM

Inquiry: # TGI lookup, item COc1ccc(C2SC(N)=Nc3c2c(C)nn3C(=O)c2ccccc2O)cc1 (configuration not stated)
Reply text: > 10 µM
